FYI, the data here is from paper PMC11164105.

# target_or_test_system: SARS-CoV-2 Mpro (Severe acute respiratory syndrome coronavirus 2)
# Construct: purchased BPS Bioscience
# assay_text: SARS-CoV-2 Mpro inhibition assay (BPS Bioscience, FRET peptide)
# Format: biochemical
reported_metric: IC50 (µM)

molecule="Cc1cccc(C)c1OCC(=O)N[C@@H](Cc1ccccc1)[C@@H](O)C[C@H](Cc1ccccc1)NC(=O)[C@H](C(C)C)N1CCCNC1=O [Lopinavir, reference compound]" target_or_test_system="SARS-CoV-2 Mpro (Severe acute respiratory syndrome coronavirus 2)" reported_metric=IC50 reported=149

* * *

reported_metric: melting point

compound="O=C(Cn1cc(COc2ccc(/C=N/N3C(=O)c4ccccc4C3=O)cc2)nn1)Nc1ccc(C(=O)O)cc1 [Compound 6a]" reported_metric="melting point" reported="264 to 265 °C"
compound="O=C1c2ccccc2C(=O)N1/N=C/c1ccc(OCc2cn(-c3ccc(F)cc3)nn2)cc1 [Compound 8a]" reported_metric="melting point" reported="238 to 239 °C"
compound="O=C(Cn1cc(COc2ccc(/C=N/N3C(=O)c4ccccc4C3=O)cc2)nn1)NCc1ccc(Cl)cc1 [Compound 6h]" reported_metric="melting point" reported="208 to 209 °C"
compound="O=C1c2ccccc2C(=O)N1/N=C/c1ccc(OCc2cn(-c3ccccc3F)nn2)cc1 [Compound 8e]" reported_metric="melting point" reported="248 to 249 °C"
compound="CC(=O)OC[C@@H]1O[C@H](n2cc(COc3ccc(/C=N/N4C(=O)c5ccccc5C4=O)cc3)nn2)[C@@H](OC(C)=O)[C@H](OC(C)=O)[C@H]1OC(C)=O [Compound 10a]" reported_metric="melting point" reported="166 to 167 °C"
compound="O=C(Cn1cc(COc2ccc(/C=N/N3C(=O)c4ccccc4C3=O)cc2)nn1)Nc1ccccc1I [Compound 6b]" reported_metric="melting point" reported="213 to 214 °C"
compound="O=C(Cn1cc(COc2ccc(/C=N/N3C(=O)c4ccccc4C3=O)cc2)nn1)Nc1ccc(F)cc1 [Compound 6e]" reported_metric="melting point" reported="219 to 220 °C"
compound="CCOC(=O)c1ccc(-n2cc(COc3ccc(/C=N/N4C(=O)c5ccccc5C4=O)cc3)nn2)cc1 [Compound 8f]" reported_metric="melting point" reported="224 to 225 °C"
compound="O=C(Cn1cc(COc2ccc(/C=N/N3C(=O)c4ccccc4C3=O)cc2)nn1)Nc1ccc([N+](=O)[O-])cc1 [Compound 6d]" reported_metric="melting point" reported="242 to 243 °C"
